Sequence of the target: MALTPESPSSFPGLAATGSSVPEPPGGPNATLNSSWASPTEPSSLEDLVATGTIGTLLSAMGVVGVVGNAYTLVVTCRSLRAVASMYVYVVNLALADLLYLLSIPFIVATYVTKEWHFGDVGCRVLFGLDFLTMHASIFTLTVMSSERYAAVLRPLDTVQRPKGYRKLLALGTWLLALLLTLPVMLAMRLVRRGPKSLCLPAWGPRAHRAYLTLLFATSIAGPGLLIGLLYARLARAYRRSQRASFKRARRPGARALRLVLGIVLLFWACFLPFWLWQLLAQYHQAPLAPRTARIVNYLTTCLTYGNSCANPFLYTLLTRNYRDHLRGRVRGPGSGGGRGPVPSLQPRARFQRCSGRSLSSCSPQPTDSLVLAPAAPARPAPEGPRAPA
Bridge positions count the residues as written; N and C are the ends. Square brackets hold non-standard residues; d marks the D form. Peptide text beside a SMILES is read from it. NMeW = CN[C@@H](Cc1c[nH]c2ccccc12)C(=O)O

COMPOUND: CC(C)[C@H](NC(=O)[C@@H]1CSSC[C@H](NC(=O)[C@H](C)N)C(=O)N[C@@H](Cc2ccccc2)C(=O)N[C@@H](Cc2c[nH]c3ccccc23)C(=O)N[C@@H](CCCCN)C(=O)N(C)[C@@H](Cc2ccc(O)cc2)C(=O)N1)C(=O)O
UNIT_ABBREVIATION: nM
Ki: 5370

COMPOUND: CC(C)[C@H](NC(=O)[C@@H]1CSSC[C@H](NC(=O)[C@@H](N)CC(=O)O)C(=O)N[C@@H](Cc2ccccc2)C(=O)N(C)[C@@H](Cc2c[nH]c3ccccc23)C(=O)N[C@@H](CCCCN)C(=O)N[C@@H](Cc2ccc(O)cc2)C(=O)N1)C(=O)O (H-DCF[NMeW]KYCV-OH; disulfide 2-7)
UNIT_ABBREVIATION: nM
Ki: 1.74
